# EXPERIMENT_NOTES: qHTS Validation assay for Inhibitors of Plasmodium falciparum Dd2 growth in vitro; note: nearly all actives have a fitted effect of over 70% in size
# CONDITION_DESCRIPTION: P. falciparum Dd2 in RBCs, SYBR Green growth, 72 h; series mostly up to 28.7 µM
In all, about 4,100 compounds went through this assay and about 1,600 (39%) were called active. Roughly 25% stayed inconclusive and do not appear here. Calls come from the whole dose curve; as a rule, active = well fitted inhibition curve with a large enough effect; inconclusive = small, poorly fitted or top-dose-only effect; inactive = no such curve, though single readings can be large or run the other way. This is one part of the list.
Tick one outcome: Y = active, N = inactive

O=C(NN1C(=O)C2C(C1=O)C1C=CC2C12CC2)c1cccnc1 (configuration not stated)	N

Input line: GET /call?item= CN1c2cc(C(=O)NCc3ccc(F)cc3)ccc2C(=O)N2CCCCCC21 (configuration not stated) returns the recorded outcome of this test.
Output line: N

Input line: GET /call?item= CCC(C)N(CCNC(=O)c1ccc2c(c1)NC(=O)c1ccccc1S2)C1CCCCC1 (configuration not stated) returns the recorded outcome of this test.
Output line: Y

Input line: GET /call?item= `CCc1ccc(CNC(=O)c2cc3cc4ccc(OC)cc4nc3o2)cc1` returns the recorded outcome of this test.
Output line: N

Input line: GET /call?item= `c1cc(Nc2ncnc3sc4c(c23)CCC4)ccn1` returns the recorded outcome of this test.
Output line: N

Input line: GET /call?item= `O=C(Nc1ccc(Cl)cc1)Nc1ccc2c(c1)N1CCN=C1S2` returns the recorded outcome of this test.
Output line: Y

Input line: GET /call?item= `O=C(c1cc(NC(=O)C23CC4CC(CC(C4)C2)C3)cc(NC(=O)C23CC4CC(CC(C4)C2)C3)c1)N1CCCCC1` returns the recorded outcome of this test.
Output line: Y

Input line: GET /call?item= `COc1ccccc1NC(=O)N1CCOc2ccc(CN3CCc4ccccc4C3)cc2C1` returns the recorded outcome of this test.
Output line: Y

Input line: GET /call?item= CCOc1ccc(C2Cn3nnc(-c4nc(-c5ccsc5)no4)c3CO2)cc1 (configuration not stated) returns the recorded outcome of this test.
Output line: N

Input line: GET /call?item= O=C(CC1CCCN(c2cnn(CC3CC3)c(=O)c2)C1)NCc1ccccc1 (configuration not stated) returns the recorded outcome of this test.
Output line: N

Input line: GET /call?item= `COc1ccc(-c2cc3c(=O)n(CCNC(=O)c4ccc(C)c(F)c4)ccn3n2)cc1` returns the recorded outcome of this test.
Output line: N

Input line: GET /call?item= `CCCOC(=O)c1ccc(-c2c(C)noc2-c2ccc(OC)cc2O)o1` returns the recorded outcome of this test.
Output line: Y

Input line: GET /call?item= O=C(NCc1ccccc1F)C1CCN(C(=O)c2ncn3c2COC(c2ccc(F)cc2)C3)CC1 (configuration not stated) returns the recorded outcome of this test.
Output line: N

Input line: GET /call?item= `O=C(Nc1ccc(F)cc1)N1CCOc2ccc(CN3CCc4ccccc4C3)cc2C1` returns the recorded outcome of this test.
Output line: Y

Input line: GET /call?item= `Cc1ccccc1C(=O)Nc1cccc(-c2nc3cccnc3s2)c1` returns the recorded outcome of this test.
Output line: N

Input line: GET /call?item= `CCOc1ccccc1NC(=O)Cn1c(-c2ccc(Cl)cc2)noc1=O` returns the recorded outcome of this test.
Output line: Y

Input line: GET /call?item= `COc1cc(NC(=O)c2cc(-c3cccs3)on2)c(OC)cc1Cl` returns the recorded outcome of this test.
Output line: N
